Tested On: Histamine H3 receptor (Homo sapiens)
Sequence (Q9Y5N1 whole entry): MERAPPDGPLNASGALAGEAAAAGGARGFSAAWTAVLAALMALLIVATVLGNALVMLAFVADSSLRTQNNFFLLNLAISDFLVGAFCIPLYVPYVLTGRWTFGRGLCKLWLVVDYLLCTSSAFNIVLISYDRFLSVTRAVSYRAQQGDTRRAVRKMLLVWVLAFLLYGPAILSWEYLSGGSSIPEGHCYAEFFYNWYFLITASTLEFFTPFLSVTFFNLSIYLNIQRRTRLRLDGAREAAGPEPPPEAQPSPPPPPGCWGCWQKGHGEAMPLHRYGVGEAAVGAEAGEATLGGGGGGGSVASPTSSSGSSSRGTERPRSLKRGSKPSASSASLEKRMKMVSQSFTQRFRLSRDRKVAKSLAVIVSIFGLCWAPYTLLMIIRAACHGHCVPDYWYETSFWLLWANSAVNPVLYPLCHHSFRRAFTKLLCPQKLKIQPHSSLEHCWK
Procedure Details: Antagonist activity at human histamine H3 receptor expressed in HEK293 cells assessed by forskolin induced cAMP response element activation after 5 hrs by luciferase reporter gene assay
pIC50: −log10 of the molar value.
Documented pIC50 across a set of compounds
Readout Name: pIC50

* O=C(Cc1c[nH]c2ccccc12)Nc1ccc(CN2CCCC2)cc1 | 5.86
* c1ccc2c(CCNc3ccc(CN4CCCC4)cc3)c[nH]c2c1 | 6.74
* O=C(Cc1c[nH]c2ccccc12)Nc1ccc(CN2CCCCC2)cc1 | 5.55
* O=C(Cc1c[nH]c2ccccc12)Oc1ccc(CN2CCCCC2)cc1 | 5.98

Reference source: ChEMBL document CHEMBL2417548
